Give measured GI50 for each item. Keep answers brief.
tested on: HL-60; assay: NCI tumour cell line growth inhibition, 48 h
The source made the active and inactive calls. No stated cut-off is given here; in the data, active = GI50 up to about 1.1 µM and inactive = higher.

Which value of GI50 has been reported for O=CC[C@H]1C(=O)C[C@@H]2CCC[C@@H]21 in the records?
32.1 µM (inactive)

Which value of GI50 has been reported for C/C=C\C(C)=C/C(C)C(=O)CC(O)CC1CC(=O)NC(=O)C1 (stereo not drawn) in the records?
40.2 µM (inactive)

Which value of GI50 has been reported for CSC(=S)Nc1cccc(C)n1 in the records?
> 100 µM (inactive)

* * *

test system: RPMI-8226; test: NCI tumour cell line growth inhibition, 48 h
Active and inactive are the calls of the source. No stated cut-off is given here; in the data, active = GI50 up to about 1.1 µM and inactive = higher.
Pick one and only one: true (1) for active, false (0) for inactive

// outcome(item) with item = Cc1cc(O)nc(NNC(C#N)c2ccco2)n1 (stereo not given)
false (0)

// outcome(item) with item = CCOC(=O)c1ccc(Nc2nc3ccccc3nc2-c2cccs2)cc1
false (0)

// outcome(item) with item = O=C1c2ccccc2C(=O)N1c1nc(-c2ccc(Cl)cc2)cc(N2N=C(c3ccc(Br)cc3)CC2c2ccccc2)n1 (stereo not given)
false (0)

// outcome(item) with item = C=CC/N=C1\N=C(C)C(C(=O)OCC)S1 (stereo not given)
false (0)

// outcome(item) with item = C#CC(O)/C=C/C(O)CCCC(O)CC#CC(O)C#CC(O)CCCC(O)/C=C/CCCC(=O)CCCCCCCCCCCCCCCC(O)C(O)C#CC(=O)O (stereo not given)
false (0)

// outcome(item) with item = COc1cc2c(cc1OC)C(Cl)C(c1ccc(F)cc1)=C2Cl (stereo not given)
false (0)

// outcome(item) with item = COc1ccc(-c2c3c(cc4cc5c(cc24)OCO5)C(=O)OC3)cc1OC
true (1)

// outcome(item) with item = O=S1(=O)CCN(Cc2ccccn2)CC1
false (0)

// outcome(item) with item = COc1cc(Nc2nc3ccccc3nc2-c2cccs2)cc(OC)c1OC
false (0)

// outcome(item) with item = O=c1[nH]nc(Cc2ccc(Cl)cc2)n1/N=C\c1ccc(/C=N/n2c(Cc3ccc(Cl)cc3)n[nH]c2=O)cc1
false (0)

// outcome(item) with item = COc1ccc(N2C(=O)CC(=O)N(NC(=O)C(C)Oc3ccccc3C)C2=S)cc1 (stereo not given)
false (0)

// outcome(item) with item = CC1=C2C(=O)c3ccccc3C(=O)[C@H]2[C@H]2CCO[C@H]2O1
false (0)

// outcome(item) with item = CNC1Cc2c[nH]c3cccc(c23)C12C=C(C)C(=O)O2 (stereo not given)
false (0)

// outcome(item) with item = Cc1c(C#N)c2nnn(C)c(=O)n2c1-c1ccccc1
false (0)

// outcome(item) with item = O=C(CSc1nc2ccccc2c2ccccc12)c1ccccc1
false (0)

// outcome(item) with item = COc1ccc(C2c3cc4c(cc3OC(N3CCCCC3)C2C)OCO4)cc1 (stereo not given)
false (0)

// outcome(item) with item = COC(=O)C1CC(C(=O)OC)c2nc3cc(C)c(C)cc3nc21 (stereo not given)
false (0)

// outcome(item) with item = CC1CC/C(=C\c2ccc(Cl)cc2)c2nc(N)c(C#N)c(-c3ccc(Cl)cc3)c21 (stereo not given)
false (0)

// outcome(item) with item = Cc1c2ccnc(C(F)(F)F)c2cc2c1[nH]c1ccccc12
false (0)

// outcome(item) with item = FC1(F)ON2CCc3ccccc3C2[C@H]1c1ccccc1 (stereo not given in full)
false (0)

// outcome(item) with item = NCCCNc1ccc2c(c1)[n+]([O-])c1ccccc1[n+]2[O-]
false (0)

// outcome(item) with item = O=C1/C(=N\NC(=S)NC2CCCCC2)c2cc([N+](=O)[O-])ccc2N1CN1CCOCC1
false (0)

// outcome(item) with item = O=C(NC(Cc1ccccc1)(Cc1ccc(O)cn1)C(=O)O)c1ccccc1 (stereo not given)
false (0)

// outcome(item) with item = CC(C)OP(=O)(OC(C)C)/C(=N/Nc1ccc([N+](=O)[O-])cc1)NCCO
false (0)

// outcome(item) with item = Cc1sc2c(c1C)/C(=N\O)c1cccn1-2
false (0)

// outcome(item) with item = Cc1ccc(S(=O)(=O)N/N=C2\CC(C)OC3=C2CCCCCC3)cc1 (stereo not given)
false (0)

// outcome(item) with item = CC1(C)C2CC(O)C1CCC2=O (stereo not given)
false (0)

// outcome(item) with item = O=C1c2cccnc2S(=O)(=O)N1c1ccc(Oc2ccccc2)cc1
false (0)

// outcome(item) with item = CON(C)C(=O)C(C)NC(=O)OCc1ccccc1 (stereo not given)
false (0)

// outcome(item) with item = CN(C)CCCNc1ccc2nnn3c4ccc(OC(=O)c5ccccc5)cc4c(=O)c1c23
false (0)

// outcome(item) with item = CCOC(=O)O/N=C1/C(=C2/C(=O)Nc3ccccc32)Nc2ccccc21
false (0)

// outcome(item) with item = O=C(O)C1=C(Cl)c2ccccc2S1(=O)=O
false (0)

// outcome(item) with item = CC(C)C1=CC23CCC4C(C)(C(=O)O)CCCC4(C)C2CC1C1C(=O)N(c2ccc(N4C(=O)C5C6CC7C8(C)CCCC(C)(C(=O)O)C8CCC7(C=C6C(C)C)C5C4=O)cc2)C(=O)C13 (stereo not given)
false (0)

// outcome(item) with item = O=[N+]([O-])c1ccc(-n2nc3ccc4nonc4c3n2)cc1
false (0)

// outcome(item) with item = O=C1C=C(Nc2ccc(Cl)cc2Cl)c2ccccc2C1=O
false (0)

// outcome(item) with item = O=C1C(C2=[N+]([O-])c3ccccc3C2=O)=[N+]([O-])c2ccccc21
false (0)

// outcome(item) with item = COC(=O)[C@@H]1C[C@H]([Se]c2ccccc2)CN1C(=O)OCc1ccccc1
false (0)

// outcome(item) with item = COc1cc2oc(=O)cc(C)c2cc1O
false (0)

// outcome(item) with item = COC(=O)CC(NC(=O)OCc1ccccc1)C(C(=O)OCc1ccccc1)C(C)(OC)OC (stereo not given)
false (0)

// outcome(item) with item = COC(=O)C12OC(C)(C(CC(=O)OC(C)(C)C)C1=O)C1C(=O)N(c3ccccc3)C(=O)C12 (stereo not given)
false (0)

* * *

test system: OVCAR-4; assay: NCI tumour cell line growth inhibition, 48 h
Activity calls are given as the source filed them. Rule as the data show it: active = GI50 up to about 1.1 µM and inactive = higher.
Pick one and only one: active, inactive

// outcome(item) with item = COC(=O)c1c(O)ccc2c1c1c(n2-c2ccc(OC)cc2)C(=O)c2ccccc2C1=O
inactive

// outcome(item) with item = CCCSc1ccc2[nH]c(N3C(=O)/C(=C/c4cc(OC)c(OC)c(OC)c4)N=C3c3ccccc3)cc2c1
inactive

// outcome(item) with item = COc1cc([C@@H]2c3cc4c(cc3[C@@H](NC(=O)c3cccc(C#N)c3)C3COC(=O)[C@@H]32)OCO4)cc(OC)c1O (stereo not given in full)
inactive

// outcome(item) with item = COC(=O)C(Br)C1CCc2ccccc21 (stereo not given)
inactive

// outcome(item) with item = COc1ccc(/C(=N\NC(=O)C(N)=O)C(c2ccc(OC)cc2)C2(O)C(=O)Nc3c(Cl)cccc32)cc1 (stereo not given)
inactive

// outcome(item) with item = O=C1C=C(Nc2cc(Cl)ccc2Cl)c2ccccc2C1=O
inactive

// outcome(item) with item = CN1CCCN2CCN(C)CCCN(CC1)CC2
inactive

// outcome(item) with item = CCC1=C(C)C(=O)N/C1=C\c1[nH]c(C)c([C@H](C)CCN)c1C
inactive

// outcome(item) with item = Nc1nc(Cl)cc(NCC2(CO)CC(Cc3ccccc3)C2)n1 (stereo not given)
inactive

// outcome(item) with item = O=C1c2cc([N+](=O)[O-])ccc2-c2cccc(F)c21
inactive

// outcome(item) with item = Nc1[nH]nc2ccccc12
inactive

// outcome(item) with item = O=C1C=C[C@@H](COC2OC(CO)C(O)C(O)C2O)O1 (stereo not given in full)
inactive

// outcome(item) with item = CC1CC(C#N)=C2NCCN2C1=O (stereo not given)
inactive

// outcome(item) with item = CC(C)C(=O)NC(=S)Nc1ccc([N+](=O)[O-])cc1C#N
inactive

// outcome(item) with item = CC1=Nc2ccccc2SC(c2c(Cl)cccc2Cl)C1 (stereo not given)
inactive

// outcome(item) with item = CC(=O)OCC12CN(C#N)C3C4COC(CC41)C1(C(=O)N(C)c4ccccc41)C32 (stereo not given)
inactive

// outcome(item) with item = CC(=O)OC[C@@]12C[C@H]3C(=O)C(C)(C)C[C@H]3[C@]1(C)[C@@H](OC(C)=O)[C@]1(O)[C@H]([C@@H](OC(=O)c3ccccc3)[C@@H](C)[C@H]1OC(C)=O)[C@H]2OC(C)=O
inactive

// outcome(item) with item = COc1cc(Nc2c3ccccc3nc3ccccc23)ccc1NS(C)(=O)=O
inactive

// outcome(item) with item = O=C(O)C1OC(Oc2cc(O)c3c(=O)cc(-c4ccc(O)cc4)oc3c2)C(O)C(O)C1O (stereo not given)
inactive

// outcome(item) with item = CNc1nc(SC)nc2c1c(N)nn2C
inactive

// outcome(item) with item = Cc1ccc(/C(=C/C=C(C#N)C#N)Sc2cc(Cl)ccc2Cl)cc1
inactive

// outcome(item) with item = O=C1c2c(nc3ccccc3c2-c2ccccc2)CN1Nc1ccccn1
inactive

// outcome(item) with item = CCOC(=O)C(Cc1ccc(O)cc1)Nc1nc(=O)c2c(=O)oc(Cl)cc2o1 (stereo not given)
inactive

// outcome(item) with item = COc1cc(NCC(C#N)C#N)ccc1/N=N/c1ccc(Cl)cc1
inactive

// outcome(item) with item = O=S1(=O)CS(=O)(=O)OCCCO1
inactive

// outcome(item) with item = N[C@@H](Cc1ccc2oc3cc(=O)c4ccccc4c-3nc2c1)C(=O)O
inactive

// outcome(item) with item = C=C1C(=O)C=C[C@]2(C)CC[C@H]3C(=C)C(=O)O[C@@H]3[C@@H]12
inactive

// outcome(item) with item = Nc1nc(S)c2c(N)n[nH]c2c1C(=O)Nc1ccccc1
inactive

// outcome(item) with item = COc1cc(O)c2c(c1O)C(=O)c1cc(C)ncc1C2=O
inactive

// outcome(item) with item = Cc1ccc(/C=C2\CN(C)CC3=C2N=C(S)NC3c2ccc(C)cc2)cc1 (stereo not given)
inactive

// outcome(item) with item = CCOc1ccccc1/N=N/c1ccc2oc(=O)c(C(C)=O)cc2c1
inactive

// outcome(item) with item = COc1cccc(N/C(C)=C2/CCOC2=O)c1
inactive

// outcome(item) with item = C/C(=C(/C)c1cc[n+](C)cc1)c1cc[n+](C)cc1
inactive

// outcome(item) with item = COC(=O)C1CC(C(=O)OC)c2nc3cc(C)c(C)cc3nc21 (stereo not given)
inactive

// outcome(item) with item = C#C[C@]1(O)[C@@H](CO)O[C@@H](n2ccc(=O)[nH]c2=O)[C@@H]1O
active
